Attribution: ChEMBL document CHEMBL2311383

# experimentSummary: Metabolic stability in rat liver microsome after 30 mins by LC/MS/MS analysis
# Type: ADME
# conditionDescription: liver microsomes, read-out: Stability
experimentalEndpoint: remaining at 0.5 h (%)

- smi: "O=C(Nc1ccc(Cl)cc1)c1ccc(N2CCN(C(=O)c3ccccc3C(F)(F)F)CC2)nn1"
  readingUnit: "%"
  remaining at 0.5 h: 65
- smi: "O=C(CNC(=O)c1ccc(N2CCN(C(=O)c3ccccc3C(F)(F)F)CC2)nn1)c1ccccc1"
  readingUnit: "%"
  remaining at 0.5 h: 63
- smi: "O=C(NCCC1CC1)c1ccc(N2CCN(C(=O)c3ccccc3C(F)(F)F)CC2)nn1"
  readingUnit: "%"
  remaining at 0.5 h: 76
- smi: "O=C(NC[C@@H](O)c1ccccc1)c1ccc(N2CCN(C(=O)c3ccccc3C(F)(F)F)CC2)nn1"
  readingUnit: "%"
  remaining at 0.5 h: 82
